Here the recorded change of baseline mechanical sensitivity (paw-withdrawal threshold) is given for each entry.
System: Sprague-Dawley rats
assay_details: Mechanical nociceptive threshold, Randall-Selitto paw pressure test after intradermal injection
Assay type: in vivo, rat
assay_context: inhibitor alone, without stimulation (U73122/U73343 2.5 μl 1 μg/μl, 1-/2-butanol 2.5 μl)
outcome_measure: change of baseline mechanical sensitivity (paw-withdrawal threshold)

- molecule: "COc1ccc2c(c1)CC[C@@H]1[C@@H]2CC[C@]2(C)[C@@H](NCCCCCCN3C(=O)C=CC3=O)CC[C@@H]12"
  tested_target: "Sprague-Dawley rats"
  recorded_value: "−4.4%±1.3%"
- molecule: "CCC(C)O (stereo not shown)"
  tested_target: "Sprague-Dawley rats"
  recorded_value: "−8%±1.7%"
- molecule: "COc1ccc2c(c1)CC[C@@H]1[C@@H]2CC[C@]2(C)[C@@H](NCCCCCCN3C(=O)CCC3=O)CC[C@@H]12"
  tested_target: "Sprague-Dawley rats"
  recorded_value: "2.8%±1.9%"
- molecule: "CCCCO"
  tested_target: "Sprague-Dawley rats"
  recorded_value: "−0.0%±1.8%"
